Assay details: qHTS assay to identify small molecule agonists of the estrogen receptor alpha (ER-alpha) signaling pathway in the presence of an antagonist - cell viability counter screen (AID 1259386);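 further: cells exposed to compounds for 22 h at 37 °C before the viability read; nearly all actives have a fitted effect of over 30% in size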
Conditions: VM7Luc4E2 viability, CellTiter-Fluor fluorescence, 22 h; series mostly up to 92.4 µM
Inconclusive results are not listed. Calls of active or inactive are those of the source. The call rests on the fitted dose curve; in most records, active means well fitted cell-killing curve with a large enough effect in the repeat runs; inconclusive means weak or mixed curves, or effect the other way; inactive means no such curve, though single readings can be large or run the other way.
Possible outcomes: class 1 (active), class 0 (inactive)

Molecule	Assigned label
BrCBr	class 0
ClC1=C(Cl)[C@]2(Cl)[C@H]3[C@H]([C@H]4C=C[C@H]3C4)[C@@]1(Cl)C2(Cl)Cl	class 0
N#CCc1ccc(Cl)cc1	class 0
CC(=O)/C=C/c1ccc2c(c1)OCO2	class 0
COP(=O)(OC)SCn1c(=O)oc2cc(Cl)cnc21	class 0
CN(C)C(=S)S	class 0
Cc1ccc(OP(=O)(Oc2ccccc2)Oc2ccccc2)cc1	class 0
COS(=O)(=O)c1ccc(C)cc1	class 0
c1ccc(OCC2CO2)cc1 (centres undefined)	class 0
O=C(CCl)Nc1ccccc1	class 1
C[C@@H]1CC[C@@]2(OC1)O[C@H]1[C@@H](O)[C@H]3[C@@H]4CC[C@H]5C[C@@H](O[C@@H]6O[C@H](CO)[C@H](O[C@@H]7O[C@H](CO)[C@@H](O)[C@H](O[C@@H]8OC[C@@H](O)[C@H](O)[C@H]8O)[C@H]7O[C@@H]7O[C@H](CO)[C@@H](O)[C@H](O[C@@H]8O[C@H](CO)[C@@H](O)[C@H](O)[C@H]8O)[C@H]7O)[C@H](O)[C@H]6O)[C@H](O)C[C@]5(C)[C@H]4CC[C@]3(C)[C@H]1[C@@H]2C	class 1
CCCCOP(=O)(CCCC)OCCCC	class 0
O=S(=O)(c1ccc(Cl)cc1)c1ccc(Cl)cc1	class 0
N#C/C=C/C#N	class 0
CCOP(=O)(NC(C)C)Oc1ccc(SC)c(C)c1 (centres undefined)	class 0
CCCCCCCCCCCCCN1CC(C)OC(C)C1 (centres undefined)	class 0
C[As+](C)(C)CC(=O)[O-]	class 0
CC1(c2ccc(Oc3ccccc3)cc2)OC(=O)N(Nc2ccccc2)C1=O (centres undefined)	class 1
CCC(C)c1cc(C(C)(C)C)cc(-n2nc3ccccc3n2)c1O (centres undefined)	class 0
COP(N)(=S)OC	class 0
O=C/C(Cl)=C(/Cl)C(=O)O	class 0
CCSC(C)CC1CC(=O)C(/C(CC)=N/OC/C=C/Cl)=C(O)C1 (centres undefined)	class 0
Cl/C=C\CCl	class 0
Clc1ccc(Oc2ccccc2)cc1	class 0

====

Assay details: A CellTox Green Cytotoxicity Assay to monitor cytotoxicity in HepG2 cells - 40 hour (AID 1224879); further: nearly all actives have a fitted effect of over 40% in size
Conditions: CellTox Green fluorescence; series mostly up to 76.8 µM
Records with an inconclusive call do not appear. Active and inactive are the calls of the source. The call rests on the fitted dose curve; in most records, active means well fitted activation curve with a large enough effect in the repeat runs; inconclusive means weak or mixed curves; inactive means flat fitted curve, though single readings scatter.
Possible outcomes: y for active, n for inactive

> print(dat)
                                    molecule  assigned.label
 1                               C=CCOC(N)=O               n
 2                          N#CCc1ccc(Cl)cc1               n
 3        COP(=O)(OC)SCn1c(=O)oc2cc(Cl)cnc21               y
 4  Cc1c(Cl)c(=O)oc2cc(OP(=O)(OCCCl)OCCCl)ccc12               n
 5                O=C(O)COc1nc(Cl)c(Cl)cc1Cl               n
 6  CCOc1cc(C(C)(C)C)ccc1C1COC(c2c(F)cccc2F)=N1 (stereo not drawn)               n
 7  [Cl][Sn]([c]1ccccc1)([c]1ccccc1)[c]1ccccc1               y
 8  Cc1cccc(OP(=O)(Oc2cccc(C)c2)Oc2cccc(C)c2)c1               n
 9                  c1ccc2c(c1)[nH]c1cnccc12               n
10  O=[N+]([O-])c1cc([N+](=O)[O-])c2ccccc2c1               n
11         O=S(=O)(c1ccc(Cl)cc1)c1ccc(Cl)cc1               n
12                    C[As+](C)(C)CC(=O)[O-]               n
13                    C=CC(=O)OCCCCOC(=O)C=C               y
